Just for reference, paper PMC9911399 is where these values come from.

Study System: T1, RBFOX1 RRM RbFoxmut (Fox-RRM*) (Homo sapiens, UniProt Q9NWB1 109-208, R118D;E147R;N151S;E152T)
T1 sequence: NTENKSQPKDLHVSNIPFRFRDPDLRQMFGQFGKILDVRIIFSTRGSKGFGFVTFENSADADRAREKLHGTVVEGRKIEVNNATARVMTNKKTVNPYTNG
Experiment Notes: EMSA; HiTS-Eq, 1 nM pool, 10 min; buffer printed only for the single-RNA assays: 10 mM Tris pH 7.5, 150 mM NaCl, 3.4 mM EDTA, 0.001% NP-40, 30 C
Experimental Conditions: tags: His6 N-terminal (pET28a); label: 5' 32P
Over roughly 16,000 sequences, “ka relative to ugcaugu” has its median near 0.096; the highest 2% begin near 0.35. The full list was thinned out, with the highest values kept by preference.
Answer each item with its documented binding signal.

Request the reported binding signal associated with UGUUGUA (DNA:RNA) RNA: GGGAGACCGGAAUUCAGAUUGUCCUGUUGUAUUAAAUCCCGUCGUAGCCACCA DNA 1: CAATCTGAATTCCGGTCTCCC DNA 2: TGGTGGCTACGACGGGATT
0.307 KA relative to UGCAUGU

Try UGGUUCG (DNA:RNA) RNA: GGGAGACCGGAAUUCAGAUUGUCCUGGUUCGUUAAAUCCCGUCGUAGCCACCA DNA 1: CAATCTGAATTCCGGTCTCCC DNA 2: TGGTGGCTACGACGGGATT next.
0.492 KA relative to UGCAUGU

Try UGUAUUA (DNA:RNA) RNA: GGGAGACCGGAAUUCAGAUUGUCCUGUAUUAUUAAAUCCCGUCGUAGCCACCA DNA 1: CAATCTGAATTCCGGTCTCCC DNA 2: TGGTGGCTACGACGGGATT next.
0.175 KA relative to UGCAUGU

Try CGCAUCU (DNA:RNA) RNA: GGGAGACCGGAAUUCAGAUUGUCCCGCAUCUUUAAAUCCCGUCGUAGCCACCA DNA 1: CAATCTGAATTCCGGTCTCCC DNA 2: TGGTGGCTACGACGGGATT next.
0.395 KA relative to UGCAUGU

Try UUGGUUU (DNA:RNA) RNA: GGGAGACCGGAAUUCAGAUUGUCCUUGGUUUUUAAAUCCCGUCGUAGCCACCA DNA 1: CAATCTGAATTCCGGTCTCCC DNA 2: TGGTGGCTACGACGGGATT next.
0.1 KA relative to UGCAUGU

Try UCGUGAC (DNA:RNA) RNA: GGGAGACCGGAAUUCAGAUUGUCCUCGUGACUUAAAUCCCGUCGUAGCCACCA DNA 1: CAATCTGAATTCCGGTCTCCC DNA 2: TGGTGGCTACGACGGGATT next.
0.0717 KA relative to UGCAUGU

Try AGACUAU (DNA:RNA) RNA: GGGAGACCGGAAUUCAGAUUGUCCAGACUAUUUAAAUCCCGUCGUAGCCACCA DNA 1: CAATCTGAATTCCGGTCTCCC DNA 2: TGGTGGCTACGACGGGATT next.
0.0902 KA relative to UGCAUGU

Try UGUAUCG (DNA:RNA) RNA: GGGAGACCGGAAUUCAGAUUGUCCUGUAUCGUUAAAUCCCGUCGUAGCCACCA DNA 1: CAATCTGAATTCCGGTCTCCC DNA 2: TGGTGGCTACGACGGGATT next.
0.648 KA relative to UGCAUGU

Try ACCCAAG (DNA:RNA) RNA: GGGAGACCGGAAUUCAGAUUGUCCACCCAAGUUAAAUCCCGUCGUAGCCACCA DNA 1: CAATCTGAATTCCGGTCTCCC DNA 2: TGGTGGCTACGACGGGATT next.
0.0886 KA relative to UGCAUGU

Try GCGCAUC (DNA:RNA) RNA: GGGAGACCGGAAUUCAGAUUGUCCGCGCAUCUUAAAUCCCGUCGUAGCCACCA DNA 1: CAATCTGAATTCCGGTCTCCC DNA 2: TGGTGGCTACGACGGGATT next.
0.49 KA relative to UGCAUGU

Try UGGUUUU (DNA:RNA) RNA: GGGAGACCGGAAUUCAGAUUGUCCUGGUUUUUUAAAUCCCGUCGUAGCCACCA DNA 1: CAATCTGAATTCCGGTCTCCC DNA 2: TGGTGGCTACGACGGGATT next.
0.0956 KA relative to UGCAUGU

Try UGUAUUG (DNA:RNA) RNA: GGGAGACCGGAAUUCAGAUUGUCCUGUAUUGUUAAAUCCCGUCGUAGCCACCA DNA 1: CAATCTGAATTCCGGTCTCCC DNA 2: TGGTGGCTACGACGGGATT next.
0.691 KA relative to UGCAUGU

Try UGUCCCG (DNA:RNA) RNA: GGGAGACCGGAAUUCAGAUUGUCCUGUCCCGUUAAAUCCCGUCGUAGCCACCA DNA 1: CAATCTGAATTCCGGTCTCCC DNA 2: TGGTGGCTACGACGGGATT next.
0.096 KA relative to UGCAUGU

Try UCACCCA (DNA:RNA) RNA: GGGAGACCGGAAUUCAGAUUGUCCUCACCCAUUAAAUCCCGUCGUAGCCACCA DNA 1: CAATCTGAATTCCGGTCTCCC DNA 2: TGGTGGCTACGACGGGATT next.
0.0824 KA relative to UGCAUGU

Try AGUUAAU (DNA:RNA) RNA: GGGAGACCGGAAUUCAGAUUGUCCAGUUAAUUUAAAUCCCGUCGUAGCCACCA DNA 1: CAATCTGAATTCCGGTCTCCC DNA 2: TGGTGGCTACGACGGGATT next.
0.0918 KA relative to UGCAUGU

Try GCAUAUC (DNA:RNA) RNA: GGGAGACCGGAAUUCAGAUUGUCCGCAUAUCUUAAAUCCCGUCGUAGCCACCA DNA 1: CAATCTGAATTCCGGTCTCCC DNA 2: TGGTGGCTACGACGGGATT next.
0.073 KA relative to UGCAUGU

Try AGUCCCU (DNA:RNA) RNA: GGGAGACCGGAAUUCAGAUUGUCCAGUCCCUUUAAAUCCCGUCGUAGCCACCA DNA 1: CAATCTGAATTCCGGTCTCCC DNA 2: TGGTGGCTACGACGGGATT next.
0.0659 KA relative to UGCAUGU
